The reported numbers originate from patent US20100292231A1.

Target entity: CSNK1D (CK1 delta) (Homo sapiens, UniProt P48730)
Sequence (P48730 whole entry): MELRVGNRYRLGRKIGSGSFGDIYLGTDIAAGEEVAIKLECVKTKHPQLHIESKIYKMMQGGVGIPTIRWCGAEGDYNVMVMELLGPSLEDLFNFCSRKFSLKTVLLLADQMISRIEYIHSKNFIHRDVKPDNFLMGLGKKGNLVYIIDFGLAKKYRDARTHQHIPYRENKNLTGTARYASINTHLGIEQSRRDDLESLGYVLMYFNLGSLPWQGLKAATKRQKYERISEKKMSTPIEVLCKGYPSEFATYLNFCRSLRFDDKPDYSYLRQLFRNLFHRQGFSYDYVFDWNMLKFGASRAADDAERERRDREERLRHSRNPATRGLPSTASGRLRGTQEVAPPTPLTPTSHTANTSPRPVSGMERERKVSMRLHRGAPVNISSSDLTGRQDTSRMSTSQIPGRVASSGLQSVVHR
Protocol text: SelectScreen kinase specificity survey
Study conditions: estimated, abridged dose response curve, read-out: Kinase inhibitory activity EC50
Protocol: Testing of the compounds described in this invention was carried out using the SelectScreen™ platform from Invitrogen, Inc. (Carlsbad. Calif., USA) and the details of its performance are readily viewed via the web by linking to: http://www.invitrogen.com/downloads/SelectScrn_Brochure.pdf. Briefly, the approach is based on treating each specific kinase with a unique substrate and optical reporter system in the presence of ATP at 100 micromolar. […]
Measured endpoint: pEC50
Just the number, please; pEC50 means minus log10 of the concentration in mol/L.

Molecule: CCN(CC)CCNc1ccc2ncn3c4ccc(O)cc4c(=O)c1c23 [Symadex, reference compound]
pEC50: 6.17

Now for a further molecule.
Inquiry: Let me know recorded pEC50 for CN(C)CCCNc1ccc2ncn3c4ccc5[nH]ncc5c4c(=O)c1c23 , thanks.
Reply text: 5.32
